Target: p53 (serine-15 phosphorylation) (Homo sapiens)
Construct: HEK 293 (p53^+/+) cells; endogenous in cells; host or cells: HEK 293
Sequence (P04637 whole entry): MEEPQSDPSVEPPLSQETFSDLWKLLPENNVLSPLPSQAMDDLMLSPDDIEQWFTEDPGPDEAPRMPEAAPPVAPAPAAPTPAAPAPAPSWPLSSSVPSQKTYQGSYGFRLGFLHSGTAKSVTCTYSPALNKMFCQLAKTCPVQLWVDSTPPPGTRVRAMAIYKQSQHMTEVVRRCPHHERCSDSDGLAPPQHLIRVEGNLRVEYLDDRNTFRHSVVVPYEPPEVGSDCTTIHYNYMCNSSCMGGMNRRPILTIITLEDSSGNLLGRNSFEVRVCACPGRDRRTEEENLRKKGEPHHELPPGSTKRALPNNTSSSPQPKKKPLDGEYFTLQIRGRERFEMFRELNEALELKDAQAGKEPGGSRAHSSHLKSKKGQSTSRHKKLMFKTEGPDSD
Experiment: Western blotting for total p53 and phospho serine-15 p53 in peptide-treated HEK 293 cells
Type: cell-based
Conditions: HEK 293, 10 μM peptide, 12 h (FIG. 4A)
measuredParameter: p53 activation (pSer-15 p53 level)

INSERT INTO measurements (seqtext, result) VALUES
  ('YGRKKRRQRRRTAWRRKQRGQSLAVKSFSRRTPSSSAYSASETM [PS350A, point mutant of P44, serine 350 replaced by alanine]', 'No significant decrease'),
  ('YGRKKRRQRRRTAWRRKQRGQSLAVKSFSRRTPSSASYSASETM [PS349A, point mutant of P44, serine 349 replaced by alanine]', 'No significant decrease'),
  ('YGRKKRRQRRRTAWRRKQRGQSLAVKSFSRRTPSASSYSASETM [PS348A, point mutant of P44, serine 348 replaced by alanine]', 'No significant decrease');

* * *

Test system: p53-driven p21 promoter in K562 (p53-/-) cells
Assay: p21 luciferase reporter assay in K562 (p53-/-) cells
Type: cell-based
Settings: K562 (p53-/-) co-transfected with p21 luciferase reporter and p53 constructs, 10 μM peptide, 12 h
measuredParameter: activation of p53 (p21 promoter driven luciferase activity)

INSERT INTO assay_data (seqtext, result) VALUES
  ('YGRKKRRQRRRTAWRRKQRGQSLAVKSFSRRTPAAAAYSASETM [SM, P44 mutant where serine residues from 347-350 were replaced by alanines]', 'complete loss'),
  ('YGRKKRRQRRRTAWRRKQRGQSLAVKSFSRRTPASSSYSASETM [PS347A, point mutant of P44, serine 347 replaced by alanine]', 'complete loss');

Just for reference, patent US8420100B2 is where these values come from.
